Kindly supply the reported pIC50 values for the records listed here.
TARGET OR TEST SYSTEM: Dual specificity calcium/calmodulin-dependent 3',5'-cyclic nucleotide phosphodiesterase 1B (Homo sapiens)
Sequence (Q01064 whole entry): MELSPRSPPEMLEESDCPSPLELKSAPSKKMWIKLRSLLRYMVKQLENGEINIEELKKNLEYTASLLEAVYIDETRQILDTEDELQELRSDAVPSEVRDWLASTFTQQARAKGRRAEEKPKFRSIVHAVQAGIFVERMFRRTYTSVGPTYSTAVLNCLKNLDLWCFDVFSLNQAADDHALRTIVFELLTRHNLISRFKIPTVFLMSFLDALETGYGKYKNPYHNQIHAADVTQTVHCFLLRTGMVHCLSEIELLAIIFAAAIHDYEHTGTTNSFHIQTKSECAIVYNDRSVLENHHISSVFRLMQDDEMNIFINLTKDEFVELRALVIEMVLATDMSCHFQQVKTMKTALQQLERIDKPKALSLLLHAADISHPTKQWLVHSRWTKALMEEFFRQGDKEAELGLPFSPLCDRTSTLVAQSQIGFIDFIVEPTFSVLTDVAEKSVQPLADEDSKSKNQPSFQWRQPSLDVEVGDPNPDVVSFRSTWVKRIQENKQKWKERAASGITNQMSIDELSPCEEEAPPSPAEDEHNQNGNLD
ASSAY: Inhibition of PDE1b
Give bare numbers, as −log10 of the molar value.

Past entries and their recorded results:
| SMILES ENTRY | pIC50 |
| --- | --- |
| CC(C)c1n[nH]c2c(=O)[nH]c(C[C@@H]3CCCC[C@H]3Nc3ncccn3)nc12 | 5.01 |
| CC(C)c1n[nH]c2c(=O)[nH]c(Cc3ccccc3OCc3ccccc3)nc12 | 5.58 |
| CC(C)c1n[nH]c2c(=O)[nH]c(Cc3cccc(Cl)c3)nc12 | 7.42 |
| CC(C)c1nn(C)c2c(=O)[nH]c(Cc3ccccc3OCCN3CCOCC3)nc12 | 5.11 |
| CC(C)c1n[nH]c2c(=O)[nH]c(Cc3ccccc3OCCN3CCOCC3)nc12 | 5.31 |

// next item, pIC50 requested
Entry CC(C)c1n[nH]c2c(=O)[nH]c(Cc3ccccc3OC(F)(F)F)nc12 , pIC50 reported as 5.58
